# measured on: NRAS Q61K (Homo sapiens (Human), UniProt P01111+P62937, Q61K)
# Sequence (P01111 whole entry Q61K): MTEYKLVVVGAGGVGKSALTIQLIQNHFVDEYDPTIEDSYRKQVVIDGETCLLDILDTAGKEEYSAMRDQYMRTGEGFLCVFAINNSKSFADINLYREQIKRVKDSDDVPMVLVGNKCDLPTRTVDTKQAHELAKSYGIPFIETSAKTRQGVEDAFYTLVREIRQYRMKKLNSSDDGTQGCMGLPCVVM
# Sequence (P62937 whole entry): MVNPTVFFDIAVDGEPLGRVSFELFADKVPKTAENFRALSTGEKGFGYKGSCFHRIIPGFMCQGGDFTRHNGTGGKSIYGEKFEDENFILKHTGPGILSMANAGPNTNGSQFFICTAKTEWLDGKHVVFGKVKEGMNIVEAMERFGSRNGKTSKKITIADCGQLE
# assay overview: Ras-Raf (BRAF RBD) disruption / FRET / MOA assay, NRAS Q61K
# Assay type: biochemical
# condition set: NRAS Q61K; Ras-Raf disruption/FRET/MOA assay; read-out: IC50* NRAS Q61K FRET data
# Protocol: The purpose of this biochemical assay is to measure the ability of test compounds to facilitate ternary complex formation between a nucleotide-loaded Ras isoform and cyclophilin A; the resulting ternary complex disrupts binding to a BRAF^RBD construct, inhibiting Ras signaling through a RAF effector. […]. Compound is present in plate wells as a 10-point 3-fold dilution series starting at a final concentration of 30 μM. […]
pIC50: −log10 of the molar value.
Item-by-item account of pIC50

C=C(OC)C(=O)N1CC(N(C)C(=O)N(C)[C@H](C(=O)N[C@H]2Cc3nc(cs3)-c3ccc4c(c3)c(c(-c3cccnc3[C@H](C)OC)n4CC)CC(C)(C)COC(=O)[C@@H]3CCCN(N3)C2=O)C(C)C)C1 (atropisomer, axis not shown); 6.00 to 7.00

Let us move to another entry and its pIC50.
Answer with reported pIC50 of C=CC(=O)N1CCOC2(CCN(C(=O)N(C)[C@H](C(=O)N[C@H]3Cc4nsc(n4)-c4ccc5c(c4)c(c(-c4cccnc4[C@H](C)OC)n5CC)CC(C)(C)COC(=O)[C@@H]4CCCN(N4)C3=O)C(C)C)CC2)C1 (atropisomer, axis not shown)
7.00 to 8.00
